The measured values listed here are drawn from PubChem BioAssay (NCI).

- Test system: MDA-MB-435
- Protocol Text: NCI tumour cell line growth inhibition, 48 h
Test Readout: TGI (µM)
One number for each entry, in µM.

Solved entries (count: 3):
- Compound: "O=C([O][Hg][CH2]C1COCC([CH2][Hg][O]C(=O)c2ccccc2)O1)c1ccccc1 (stereo not given)"
  Target Of Assay: "MDA-MB-435"
  Data Value: 30.9
- Compound: "CCCCCCCCC/C=C1\\CC(CO)(COC(=O)C2CCCCC2)OC1=O (stereo not given)"
  Target Of Assay: "MDA-MB-435"
  Data Value: 34.4
- Compound: "O=c1oc2ccccc2c(O)c1C(c1ccc(/C=C/c2ccccc2)cc1)c1c(O)c2ccccc2oc1=O"
  Target Of Assay: "MDA-MB-435"
  Data Value: 80

The record that follows has no TGI shown yet.
Measured TGI, c1ccc2c(c1)-c1ccccc1C2N1CC2CCC(CC2)C1 : 73.4
